target_under_test: KRAS-G12D protein (Homo sapiens, UniProt P01116, G12D)
Sequence (P01116 1-188 isoform P01116-2 G12D): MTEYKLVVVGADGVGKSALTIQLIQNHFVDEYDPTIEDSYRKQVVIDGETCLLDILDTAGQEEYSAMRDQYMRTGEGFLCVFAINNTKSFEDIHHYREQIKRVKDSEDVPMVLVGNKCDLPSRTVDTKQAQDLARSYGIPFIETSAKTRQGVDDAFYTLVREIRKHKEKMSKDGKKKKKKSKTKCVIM
assay_comment: SOS-mediated nucleotide exchange assay (BODIPY-GDP / Tb-streptavidin TR-FRET)
Format: biochemical
pEC50: −log10 of the molar value. *1 amine or outer side, *2 acyl side, *3 side chain or, on linkers, in order; H or OH if unused. Where a SMILES comes first, the peptide text is derived from it. [ ]: non-standard residue; d: D form. NMeNva(5-imidazol-1-yl) = CN[C@@H](CCCn1ccnc1)C(=O)O; X19 = C[C@H](c1ccccc1)[C@@H](C(=O)[*:2])N(C)[*:1]; X59 = O=C([C@H](Cc1ccc(CN2CCCC2)cc1)N[*:1])[*:2]; Ala(pyrimidin-5-yl) = N[C@@H](Cc1cncnc1)C(=O)O; NMeNva(5,5-F2) = CN[C@@H](CCC(F)F)C(=O)O; X11 = CC(C)(F)CC[C@H](N[*:1])C(=O)[*:2]; NHCH2CH2SCH2CO = O=C(CSCCN[*:1])[*:2]; Phe(2-F) = N[C@@H](Cc1ccccc1F)C(=O)O; NMe3Pal = CN[C@@H](Cc1cccnc1)C(=O)O; X1 = O=C(C12CC(CN[*:1])(C1)C2)[*:2]; Ala(cPr) = N[C@@H](CC1CC1)C(=O)O; NMeF = CN[C@@H](Cc1ccccc1)C(=O)O; PhLac = O=C(O)[C@@H](O)Cc1ccccc1; hLeu = CC(C)CC[C@H](N)C(=O)O; hSer = N[C@@H](CCO)C(=O)O; NMeA = CN[C@@H](C)C(=O)O; Nle = CCCC[C@H](N)C(=O)O
Given measured pEC50, output met if it is greater than or equal to 7 and not met if not.

molecule	assigned_category
CC(C)CC[C@@H]1NC(=O)[C@H](Cc2ccccc2F)NC(=O)[C@H](CC2CC2)NC(=O)[C@H](Cc2cncnc2)NC(=O)[C@H](CCC(F)F)N(C)C(=O)[C@H](Cc2ccccc2)OC(=O)C23CC(CNC(=O)[C@H](Cc4ccccc4)N(C)C1=O)(C2)C3 [compound 217] (cyclo([Ala(cPr)][Phe(2-F)][hLeu][NMeF][X1][PhLac][NMeNva(5,5-F2)][Ala(pyrimidin-5-yl)]))	not met
CCCC[C@@H]1NC(=O)[C@H](Cc2ccc(CN3CCCC3)cc2)NC(=O)[C@H](CCCn2ccnc2)N(C)C(=O)[C@H](Cc2ccccc2)NC(=O)C23CC(CNC(=O)[C@H](Cc4cccnc4)N(C)C(=O)[C@H](CCCC)NC(=O)[C@H](Cc4ccccc4F)NC1=O)(C2)C3 [compound 263] (cyclo(F[NMeNva(5-imidazol-1-yl)][X59][Nle][Phe(2-F)][Nle][NMe3Pal][X1]))	met
C[C@H](c1ccccc1)[C@H]1C(=O)NCC23CC(C2)(C3)C(=O)O[C@@H](Cc2ccccc2)C(=O)N(C)[C@@H](C)C(=O)N[C@@H](Cc2cncnc2)C(=O)N[C@@H](CC2CC2)C(=O)N[C@@H](Cc2ccccc2F)C(=O)N[C@@H](CCC(C)(C)F)C(=O)N1C [compound 341] (cyclo([Ala(cPr)][Phe(2-F)][X11][X19][X1][PhLac][NMeA][Ala(pyrimidin-5-yl)]))	not met
CCCC[C@@H]1NC(=O)[C@H](Cc2cnc(C#N)nc2)NC(=O)[C@H](C)N(C)C(=O)[C@H](Cc2ccccc2)OC(=O)C23CC(CNC(=O)[C@H](Cc4ccccc4)N(C)C(=O)[C@H](CCCC)NC(=O)[C@H](Cc4ccccc4F)NC1=O)(C2)C3 (single isomer, unassigned) [compound 314]	met
CCCC[C@@H]1NC(=O)[C@H](Cc2ccc(O)cc2)NC(=O)[C@H](CCOC)NC(=O)[C@H](Cc2ccc(O)cc2)NC(=O)[C@H](CCCNC(=N)N)NC(=O)[C@H](Cc2ccccc2)NC(=O)CSCCNC(=O)[C@H](Cc2ccccc2)N(C)C1=O [compound 77] (cyclo(FRY[hSer](Me)Y[Nle][NMeF][NHCH2CH2SCH2CO]))	not met
